- assayed_system: T1, human GFRAL expressed on cells (human, UniProt Q6UXV0 20-394)
- T1 sequence: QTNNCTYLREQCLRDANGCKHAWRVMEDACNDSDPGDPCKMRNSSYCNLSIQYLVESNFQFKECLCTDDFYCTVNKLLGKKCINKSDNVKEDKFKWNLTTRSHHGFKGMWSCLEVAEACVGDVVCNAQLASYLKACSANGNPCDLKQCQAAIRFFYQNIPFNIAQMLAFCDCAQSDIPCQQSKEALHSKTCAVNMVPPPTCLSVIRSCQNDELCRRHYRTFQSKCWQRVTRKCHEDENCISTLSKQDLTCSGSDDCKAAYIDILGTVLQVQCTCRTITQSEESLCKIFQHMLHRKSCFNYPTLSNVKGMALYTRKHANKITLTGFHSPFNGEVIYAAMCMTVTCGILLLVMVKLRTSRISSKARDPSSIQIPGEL
- test_description: cell-based or functional assay
Overview of recorded IC50, ELK1-luciferase reporter (hGFRAL/hRET) for various binders
Entry rule: numbers only, all in nM.

Illustrative cases are given below, each with its answer.
• humanized anti-GFRAL antibody HC-375e/LC-375a (antibody, V domains shown, humanized 5F12) VH: QVQLVQSGAEVKKPGSSVKVSCKASGYTFTDYYINWVRQAPGQGLEWMGRIYPGNGNTYHNEKFKGRATLTADESTSTAYMELSSLRSEDTAVYYCAREGLYYDYDRYFDYWGQGTLVTVSS VL: DIVMTQSPDSLAVSLGERATINCRASESVDTYGNSFMHWYQQKPGQPPKLLIYLASNLESGVPDRFSGSGSGTDFTLTISSLQAEDVAVYYCHQNNEDPPAFGGGTKVEIK = 2.81
• humanized anti-GFRAL antibody HC-375e/LC-375j (antibody, IgG1, V domains shown, humanized 5F12) VH: QVQLVQSGAEVKKPGSSVKVSCKASGYTFTDYYINWVRQAPGQGLEWMGRIYPGNGNTYHNEKFKGRATLTADESTSTAYMELSSLRSEDTAVYYCAREGLYYDYDRYFDYWGQGTLVTVSS VL: DIVLTQSPLSLPVTLGQPASISCRASESVDTYGNSFMHWYQQRPGQSPRLLIYLASNLESGVPDRFSGSGSRTDFTLKISRVEAEDVGVYYCHQNNEDPPAFGGGTKVEIK = 4.01

Turning to the following binder.
Challenge: Which IC50, ELK1-luciferase reporter (hGFRAL/hRET) is listed for humanized anti-GFRAL antibody HC-375d/LC-375j (antibody, IgG1, V domains shown, humanized 5F12) VH: QVQLVQSGAEVKKPGSSVKVSCKASGYTFTDYYINWVRQAPGQGLEWIGRIYPGNGNTYHNEKFKGRATLTADKSTSTAYMELSSLRSEDTAVYYCAREGLYYDYDRYFDYWGQGTLVTVSS VL: DIVLTQSPLSLPVTLGQPASISCRASESVDTYGNSFMHWYQQRPGQSPRLLIYLASNLESGVPDRFSGSGSRTDFTLKISRVEAEDVGVYYCHQNNEDPPAFGGGTKVEIK ?
Response given: 3.11
